B1: 1-phosphatidylinositol 4,5-bisphosphate phosphodiesterase gamma-2, residues 772 to 827; numbered along this chain, P16885 (parent)
chain: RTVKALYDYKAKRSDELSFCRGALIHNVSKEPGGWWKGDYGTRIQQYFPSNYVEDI

- Variants of: B1
- METHOD NOTES: abundance fitness (aPCA) (normalised: wild type 0, dead -1); higher = more abundant; growth selection in yeast, the domain comes from the species named
- MEASUREMENT PARAMETERS: Homo sapiens
MEASUREMENT TYPE: abundance fitness
Lab note: jot the number down without any unit.

"D15K" has a reported abundance fitness of -0.503

"D8A" has a reported abundance fitness of 0.068

"L24Q" has a reported abundance fitness of -0.267

"S50W" has a reported abundance fitness of -0.412

"Y7K" has a reported abundance fitness of 0.158

"Q45V" has a reported abundance fitness of -0.942

"T2F" has a reported abundance fitness of -0.702

"G34C" has a reported abundance fitness of -0.284

"Q45I" has a reported abundance fitness of -0.658

"D8C" has a reported abundance fitness of -0.105

"H26W" has a reported abundance fitness of -0.072

"V53E" has a reported abundance fitness of -0.934

"K30M" has a reported abundance fitness of -0.092

"D15L" has a reported abundance fitness of -0.37

"L6T" has a reported abundance fitness of -0.161

"N27I" has a reported abundance fitness of -0.748

"D8N" has a reported abundance fitness of -0.059

"K30F" has a reported abundance fitness of -0.21

"T42Y" has a reported abundance fitness of -0.385

"K37D" has a reported abundance fitness of -0.486

"F48E" has a reported abundance fitness of -1.05

"R1T" has a reported abundance fitness of 0.417

"G34Y" has a reported abundance fitness of -0.164

"K30V" has a reported abundance fitness of -0.047

"A11P" has a reported abundance fitness of -0.446

"Q45C" has a reported abundance fitness of -0.33

"G22F" has a reported abundance fitness of -0.802

"K30C" has a reported abundance fitness of -0.077

"D39R" has a reported abundance fitness of -1.01

"C20W" has a reported abundance fitness of -0.446

"D15E" has a reported abundance fitness of 0.018

"N27R" has a reported abundance fitness of -0.549

"Y47L" has a reported abundance fitness of 0.002

"V28A" has a reported abundance fitness of -0.873

"A11V" has a reported abundance fitness of -0.972

"P32M" has a reported abundance fitness of 0.093

"W35G" has a reported abundance fitness of -0.625

"Y47Q" has a reported abundance fitness of -0.167

"C20P" has a reported abundance fitness of 0.209

"L24W" has a reported abundance fitness of -0.359

"V3I" has a reported abundance fitness of -0.689

"P32E" has a reported abundance fitness of 0.126

"R21V" has a reported abundance fitness of -0.122

"T42W" has a reported abundance fitness of -0.186

"R43H" has a reported abundance fitness of 0.022

"E54L" has a reported abundance fitness of -0.434

"R13G" has a reported abundance fitness of -0.316

"N51S" has a reported abundance fitness of 0.067

"Y47E" has a reported abundance fitness of -0.672

"G34D" has a reported abundance fitness of -0.085

"Q46C" has a reported abundance fitness of -0.193

"K37V" has a reported abundance fitness of -0.213

"Q46A" has a reported abundance fitness of 0.053

"E16W" has a reported abundance fitness of -1.02

"S14Y" has a reported abundance fitness of -0.304

"D55C" has a reported abundance fitness of -0.139

"K10T" has a reported abundance fitness of -0.025

"G22K" has a reported abundance fitness of -0.203

"S14D" has a reported abundance fitness of -0.053

"H26Y" has a reported abundance fitness of -0.121

"K10N" has a reported abundance fitness of -0.042

"D8V" has a reported abundance fitness of -0.982

"K10M" has a reported abundance fitness of -0.356

"I25S" has a reported abundance fitness of -1

"Q45P" has a reported abundance fitness of -0.699

"D15Y" has a reported abundance fitness of -0.254

"A5W" has a reported abundance fitness of -0.955

"G41V" has a reported abundance fitness of -0.889

"S18A" has a reported abundance fitness of -0.862

"Y9L" has a reported abundance fitness of -0.923

"T42L" has a reported abundance fitness of -0.155

"K10C" has a reported abundance fitness of -0.034

"S14T" has a reported abundance fitness of -0.291

"T2E" has a reported abundance fitness of -0.279

"G33C" has a reported abundance fitness of -0.108

"T42F" has a reported abundance fitness of -0.152

"S18D" has a reported abundance fitness of -0.201

"S14A" has a reported abundance fitness of 0.038

"S18G" has a reported abundance fitness of -0.679

"K12S" has a reported abundance fitness of -0.263

"Q45H" has a reported abundance fitness of -0.458

"S18N" has a reported abundance fitness of -0.619

"T2N" has a reported abundance fitness of -0.587

"G41D" has a reported abundance fitness of 0.069

"F19P" has a reported abundance fitness of -0.536

"N27S" has a reported abundance fitness of -0.473

"W36C" has a reported abundance fitness of -0.108

"E31S" has a reported abundance fitness of 0.002

"Y7L" has a reported abundance fitness of -0.077

"Q46F" has a reported abundance fitness of -0.274

"I44P" has a reported abundance fitness of -0.845
